system: rodent lifetime carcinogenesis bioassay, tumor incidence TD50; assay: carcinogenic potency in animals, long-term in vivo studies, CPDB compilation (AID 1745844); settings: mouse; strain C57BL/10J; males; in feed; site: liver; lesion: several types; types named in the paper; dosed 104 weeks; study length 104 weeks
Provide the reported TD50 of each item.

COMPOUND	RESULT
ClC1=C(Cl)C2(Cl)C3C(Cl)C(Cl)CC3C1(Cl)C2(Cl)Cl (configuration not stated)	13.1 mg/kg/day

Moving on to another compound below.
Query CC(=O)O[C@]1(C(C)=O)CC[C@H]2[C@@H]3C=C(Cl)C4=CC(=O)[C@@H]5C[C@@H]5[C@]4(C)[C@H]3CC[C@@]21C on rodent lifetime carcinogenesis bioassay, tumor incidence TD50; TD50 returned: 115 mg/kg/day

----------
tested on: rodent lifetime carcinogenesis bioassay, tumor incidence TD50; experiment: carcinogenic potency in animals, long-term in vivo studies, CPDB compilation (AID 1745844); conditions: rat; strain Osborne-Mendel; females; in drinking water; site: liver; lesion: hepatocellular adenoma; dosed 110 weeks; study length 111 weeks
MEASUREMENT LABEL: TD50

Recorded TD50 (compound C1COCCO1 ): 160 mg/kg/day

----------
system: rodent lifetime carcinogenesis bioassay, tumor incidence TD50; experiment: carcinogenic potency in animals, long-term in vivo studies, CPDB compilation (AID 1745844); conditions: rat; strain Fischer 344; males; in feed; site: cecum; lesion: adenomatous polyp; dosed 27 weeks; study length 104 weeks
MEASUREMENT LABEL: TD50 (mg/kg/day)
One number for each entry, in mg/kg/day.

Recorded TD50 (compound COc1ccccc1[N+](=O)[O-] ): 21.3

----------
tested on: rodent lifetime carcinogenesis bioassay, tumor incidence TD50; test: carcinogenic potency in animals, long-term in vivo studies, CPDB compilation (AID 1745844); conditions: rat; strain Buffalo; females; in feed; site: liver; lesion: hemangioma; dosed 53 weeks; study length 93 weeks
MEASUREMENT LABEL: TD50 (mg/kg/day)
Numbers only, in mg/kg/day.

Recorded TD50 (compound CC(=O)N(C(C)=O)c1cccc2c1Cc1ccccc1-2 ): 61.2

----------
system: rodent lifetime carcinogenesis bioassay, tumor incidence TD50; test: carcinogenic potency in animals, long-term in vivo studies, CPDB compilation (AID 1745844); conditions: mouse; strain DDY; females; in feed; site: liver; lesion: hepatocellular carcinoma; dosed 81 weeks; study length 81 weeks
MEASUREMENT LABEL: TD50

Recorded TD50 (compound Cc1ccc(N=Nc2c(O)c(S(=O)(=O)O)cc3cc(S(=O)(=O)O)ccc23)c(C)c1 ): 784 mg/kg/day

----------
system: rodent lifetime carcinogenesis bioassay, tumor incidence TD50; experiment: carcinogenic potency in animals, long-term in vivo studies, CPDB compilation (AID 1745844); conditions: rat; strain Fischer 344; males; by gavage; site: any site (literature study); lesion: several types; types named in the paper; dosed 64 weeks; study length 104 weeks
MEASUREMENT LABEL: TD50 (mg/kg/day)
Answers are plain numbers, in mg/kg/day.

Recorded TD50 (compound O=C1CCc2ccccc2O1 ): 186

----------
system: rodent lifetime carcinogenesis bioassay, tumor incidence TD50; experiment: carcinogenic potency in animals, long-term in vivo studies, CPDB compilation (AID 1745844); conditions: mouse; strain B6C3F1; females; by gavage; site: liver; lesion: hepatocellular adenoma; dosed 103 weeks; study length 105 weeks
MEASUREMENT LABEL: TD50

COMPOUND	TD50
C=CC(=O)NCO	66.9 mg/kg/day
CC(Cl)CCl (stereo not given)	562 mg/kg/day

List the reported TD50 of each compound below.
1. CC(I)C1OCC(CO)O1 (stereo not given)
2. ClC=C(Cl)Cl
3. Oc1ccc(O)cc1

1: 471 mg/kg/day; 2: 579 mg/kg/day; 3: 65 mg/kg/day
